Data provenance: PubChem BioAssay

Listing: composite z-score of selected molecules
Assay: COS7 lysate on small-molecule microarray, probe aHis, 635 nm (AID 1123);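 also: z-score combines 667nm fluorescence intensity with signal-to-noise per printed compound spot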
Details: COS7 cell lysate, fluorescence, higher = more signal
Enter a number only.

Example entries begin here.
C=CCC(OC(C)=O)[C@@H]1[C@@H](N(Cc2cc3ccccc3o2)C(=O)Cc2ccc(OC)cc2)c2cc(OCCCO)ccc2N1C(=O)c1ccc2ccccc2n1 (stereo partly drawn)    0.361
C[C@@H]1ON(c2ccccc2)[C@H](c2ccccc2)[C@H]1C(=O)O    -0.0056

Quick one: composite z-score of C=C(CCCC)/C(=C/C[C@@H](OC(C)=O)c1ccc(CO)o1)c1cnc2ccccc2c1 ?
1.45
